Attribute: CTG-3D luminescence at 96 h
System: HCI-002 (organoid from a triple-negative breast cancer xenograft)
assay-notes: CTG-3D luminescence at 96 h relative to day-0 seeding control (ratio to day 0); higher = more growth / less cytotoxicity; PDxO 3D drug screen (set 2), 96 h, CTG-3D normalised to day-0 seeding control.
condition-details: 1 µM; days in culture: 168

The cases that follow already have their CTG-3D luminescence at 96 h on record.
CC(=O)c1c(C)c2cnc(Nc3ccc(N4CCNCC4)cn3)nc2n(C2CCCC2)c1=O [palbociclib]	3.02
CS(=O)(=O)CCNCc1ccc(-c2ccc3ncnc(Nc4ccc(OCc5cccc(F)c5)c(Cl)c4)c3c2)o1 [lapatinib]	3.53
CO[C@H]1C[C@@H]2CC[C@@H](C)[C@@](O)(O2)C(=O)C(=O)N2CCCC[C@H]2C(=O)O[C@H]([C@H](C)C[C@@H]2CC[C@@H](O)[C@H](OC)C2)CC(=O)[C@H](C)/C=C(\C)[C@@H](O)[C@@H](OC)C(=O)[C@H](C)C[C@H](C)/C=C/C=C/C=C/1C [rapamycin]	2.64
CCOc1ccn(-c2ccc(F)cc2)c(=O)c1C(=O)Nc1ccc(Oc2ccnc(N)c2Cl)c(F)c1 [ASLAN002]	4.12

# context switch: different compound, same CTG-3D luminescence at 96 h
Record CO[C@H]1C[C@@H]2CC[C@@H](C)[C@@](O)(O2)C(=O)C(=O)N2CCCC[C@H]2C(=O)O[C@H]([C@H](C)C[C@@H]2CC[C@@H](OCCO)[C@H](OC)C2)CC(=O)[C@H](C)/C=C(\C)[C@@H](O)[C@@H](OC)C(=O)[C@H](C)C[C@H](C)/C=C/C=C/C=C/1C [everolimus] . Reported CTG-3D luminescence at 96 h: 2.67
